B1: Twister Ribozyme (parent)
chain: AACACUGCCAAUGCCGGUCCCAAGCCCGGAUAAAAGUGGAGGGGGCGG

Variants of: B1
Assay: self-cleavage, relative activity (ratio to wild type); higher = more cleavage; co-transcriptional
Quick rule: self-cleavage of at least 0.2 means 1 (yes), below that means 0 (no).

- mutant: "A35C G43U"
  label.class: "1 (yes)"
- mutant: "C46U G47A"
  label.class: "1 (yes)"
- mutant: "A10G G29C"
  label.class: "1 (yes)"

Exercise: Does the reported self-cleavage for G13U C25G fall at or above the 0.2 mark?
Key: 0 (no)

Exercise: Exam item: decide whether the reported self-cleavage for C3U C15U is at least 0.2.
Key: 1 (yes)

Exercise: For this variant, is measured self-cleavage 0.2 or higher? C8U C14A
Key: 1 (yes)

Exercise: Check this variant for self-cleavage at or above 0.2: A2G G7A
Key: 0 (no)

Exercise: Identify whether the reported self-cleavage of the following variant is 0.2 or greater: A4G A40C
Key: 0 (no)

Exercise: In plain terms: is recorded self-cleavage at least 0.2 for A1U C25G ?
Key: 0 (no)

Exercise: Exam item: decide whether the reported self-cleavage for C19A A30C is at least 0.2.
Key: 0 (no)

Exercise: API: above_or_equal(metric=self-cleavage, cutoff=0.2) for item U18A C19U
Key: 1 (yes)

Exercise: Quick check: does A1C G45U have self-cleavage greater than or equal to 0.2?
Key: 1 (yes)
